test system: CP286; assay: qHTS profiling for inhibitors of Plasmodium falciparum proliferation (AID 504749); further: nearly all actives have a fitted effect of over 60% in size; conditions: P. falciparum in erythrocytes, SYBR Green DNA, 72 h; series mostly up to 28.7 µM
Results filed as inconclusive are left out. Calls of active or inactive are those of the source. The call rests on the fitted dose curve; in most records, active means well fitted inhibition curve with a large enough effect; inconclusive means small, poorly fitted or top-dose-only effect; inactive means flat fitted curve, though single readings scatter.
Thanks in advance; please answer with one of these: class 1 = active, class 0 = inactive

[Q] How did this test come out for C[C@]12CC[C@H](OS(=O)(=O)O)CC1=CCC1C2CC[C@]2(C)C(=O)CC[C@@H]12 (stereo partly drawn) ?
[A] class 0

[Q] Item: C[C@H](N)[C@@H](O)c1ccccc1
[A] class 0

[Q] Item: N[C@H]1C[C@H]1c1ccccc1
[A] class 0

[Q] Item: Clc1ccc([C@@H](OCCN2CCCCC2)c2ccccc2)cc1
[A] class 1

[Q] Item: NCC[C@H](O)C(=O)N[C@H]1C[C@@H](N)[C@@H](O[C@H]2O[C@@H](CN)[C@@H](O)[C@@H](O)[C@@H]2N)[C@@H](O[C@H]2O[C@@H](CO)[C@@H](O)[C@@H]2O)[C@@H]1O
[A] class 0

[Q] Item: CN(C)[C@@H]1C(=O)C(C(N)=O)=C(O)[C@]2(O)C(=O)C3=C(O)c4c(O)ccc(Cl)c4[C@](C)(O)[C@H]3C[C@@H]12
[A] class 0

[Q] Item: CC([C@H](O)c1ccccc1)N(C)C (stereo partly drawn)
[A] class 0

[Q] Item: C[C@@]12CC[C@H]3[C@@H](CC[C@@H]4C[C@H]5S[C@H]5C[C@]43C)[C@H]1CC[C@H]2O
[A] class 0

[Q] Item: CCN[C@]1(c2cccs2)CCCCC1=O
[A] class 0

[Q] Item: C[C@@H]1O[C@H](O[C@@H]2C=C3CC[C@H]4[C@@H](CC[C@]5(C)[C@@H](c6ccc(=O)oc6)CC[C@]45O)[C@@]3(C)CC2)[C@@H](O)[C@H](O)[C@@H]1O
[A] class 0

[Q] Item: CC(C)c1c(CN(C)[C@@H](C)Cc2ccccc2)n(C)n(-c2ccccc2)c1=O
[A] class 0

[Q] Item: C[C@H](NC(C)(C)C)C(=O)c1cccc(Cl)c1
[A] class 0

[Q] Item: O=[As]O[As]=O (stereo not drawn)
[A] class 1

----------
test system: CP201; assay: qHTS profiling for inhibitors of Plasmodium falciparum proliferation (AID 504749); further: nearly all actives have a fitted effect of over 60% in size; conditions: P. falciparum in erythrocytes, SYBR Green DNA, 72 h; series mostly up to 28.7 µM
Inconclusive results are not listed. Activity calls are given as the source filed them. Calls follow the shape of the dose curve; as a rule, active = well fitted inhibition curve with a large enough effect; inconclusive = small, poorly fitted or top-dose-only effect; inactive = flat fitted curve, though single readings scatter.
Thanks in advance; please answer with one of these: active, inactive

[Q] How did this test come out for O=[As]O[As]=O (stereo unspecified) ?
[A] active

[Q] Item: CC(C)(O)C1C2OC(=O)C1[C@]1(O)C[C@H]3O[C@]34C(=O)O[C@H]2[C@]14C (stereo partly specified) (tested in a mixture with another compound)
[A] inactive

[Q] Item: C[C@H](N)[C@@H](O)c1ccccc1
[A] inactive

[Q] Item: CCN[C@]1(c2cccs2)CCCCC1=O
[A] inactive

[Q] Item: C[N+]1([O-])[C@@H]2CC(OC(=O)[C@@H](CO)c3ccccc3)C[C@@H]1[C@H]1O[C@H]12 (stereo partly specified)
[A] inactive

[Q] Item: C[C@]12CC[C@H](OS(=O)(=O)O)CC1=CCC1C2CC[C@]2(C)C(=O)CC[C@@H]12 (stereo partly specified)
[A] inactive

[Q] Item: CC[C@]1(c2cccc(O)c2)CCCCN(C)C1
[A] inactive

[Q] Item: C[C@H](NC(C)(C)C)C(=O)c1cccc(Cl)c1
[A] inactive

[Q] Item: O=c1ccc2cc(O[C@H]3O[C@@H](CO)[C@@H](O)[C@@H](O)[C@@H]3O)c(O)cc2o1
[A] inactive

[Q] Item: CN(C)C(=O)Oc1cc(OC(=O)N(C)C)cc([C@@H](O)CNC(C)(C)C)c1
[A] inactive

[Q] Item: CO[C@@H](COC(N)=O)C1=C(N2CC2)C(=O)C(C)=C(N2CC2)C1=O
[A] active
